molecular target: human CD38 antigen (recombinant human CD38 protein) (human, UniProt P28907 43-300, limits assumed); experiment: SPR, IgG captured on anti-human Fc, human CD38 in solution;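 note: humanized IgG captured on an amine-coupled anti-human Fc HC30M chip, with human CD38 injected as a dilution series from 1000 nM downward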
The following binders are listed with their measured Kd values.
Use nM as the unit, but write only the number.

A selection of reference data follows.
1. L1H2 (antibody, V domains shown, Humanized AT13/5 IgG, VL1 + VH2) VH: QVQLQESGPGLVKPSETLSLTCTVSGFSLTSYGVHWVRQPPGKGLEWIGVMWRGGSTDYNPSLKSRVTISKDNSKRQFSLKMSSVTAADTAVYYCAKSMITTGFVMDSWGQGTLVTVSS VL: DIQMTQSPSSLSASVGDRVTITCRASEDIYNRLTWYQQKPGKAPKLLLSGATSLETGVPSRFSGSGSGKDYTLTISSLQPEDFATYYCQQYWSNPYTFGGGTKVEIK = 400
2. L3H3 (antibody, V domains shown, Humanized AT13/5 IgG, VL3 + VH3) VH: QVQLQESGPGLVKPSETLSITCTVSGFSLTSYGVHWIRQPPGKGLEWIGVMWRGGSTDYNPSLKSRVTISKDTSKNQFSLKLSSLTAADTAVYYCAKSMITTGFVMDSWGQGTLVTVSS VL: DIQMTQSPSSLSASVGDRVTITCRASEDIYNRLTWYQQKPGKAPKLLLSGATSLETGVPSRFSGSGSGTDYTLTISSLQPEDFATYYCQQYWSNPYTFGGGTKVEIK = 1200

Please report Kd for the following binder: L4H1 (antibody, V domains shown, Humanized AT13/5 IgG, VL4 + VH1) VH: QVQLQESGPGLVKPSETLSLTCTVSGFSLTSYGVHWIRQPPGKGLEWIGVMWRGGSTDYNPSLKSRVTISKDNSKRQFSLKLSSVTAADTAVYYCAKSMITTGFVMDSWGQGTLVTVSS VL: DIQMTQSPSSLSASVGDRVTITCRASEDIYNRLTWYQQKPGKAPKLLLYGATSLETGVPSRFSGSGSGKDYTLTISSLQPEDFATYYCQQYWSNPYTFGGGTKVEIK 100

Complete the entry with Kd for L4H2 (antibody, V domains shown, Humanized AT13/5 IgG, VL4 + VH2) VH: QVQLQESGPGLVKPSETLSLTCTVSGFSLTSYGVHWVRQPPGKGLEWIGVMWRGGSTDYNPSLKSRVTISKDNSKRQFSLKMSSVTAADTAVYYCAKSMITTGFVMDSWGQGTLVTVSS VL: DIQMTQSPSSLSASVGDRVTITCRASEDIYNRLTWYQQKPGKAPKLLLYGATSLETGVPSRFSGSGSGKDYTLTISSLQPEDFATYYCQQYWSNPYTFGGGTKVEIK 250

Look up and report measured Kd for this entry: L4H7 (antibody, V domains shown, Humanized AT13/5 IgG, VL4 + VH7) VH: QVQLKQSGPGLVKPSETLSLTCTVSGFSLTSYGVHWIRQPPGKGLEWIGVMWRGGSTNYNPSLKSRLTISVDTSKNQFSLKLSSVTAADTAVYYCAKSMITTGFVMDSWGQGTLVTVSS VL: DIQMTQSPSSLSASVGDRVTITCRASEDIYNRLTWYQQKPGKAPKLLLYGATSLETGVPSRFSGSGSGKDYTLTISSLQPEDFATYYCQQYWSNPYTFGGGTKVEIK 870

Determine from records and report Kd for L1H5 (antibody, V domains shown, Humanized AT13/5 IgG, VL1 + VH5) VH: QVQLQESGPGLVKPSETLSLTCTVSGFSLTSYGVHWIRQPPGKGLEWIGVMWRGGSTDYNPSLKSRVTISVDTSKNQFSFKLSSVTAADTAIYYCAKSMITTGFVMDSWGQGTLVTVSS VL: DIQMTQSPSSLSASVGDRVTITCRASEDIYNRLTWYQQKPGKAPKLLLSGATSLETGVPSRFSGSGSGKDYTLTISSLQPEDFATYYCQQYWSNPYTFGGGTKVEIK 1800

Tell me its Kd given L4H4 (antibody, V domains shown, Humanized AT13/5 IgG, VL4 + VH4) VH: QVQLQESGPGLVKPSETLSLTCTVSGFSLTSYGVHWIRQPPGKGLEWIGVMWRGGSTDYNPSLKSRVTISVDTSKRQVSLKLSSVTAADTAVYYCAKSMITTGFVMDSWGQGTLVTVSS VL: DIQMTQSPSSLSASVGDRVTITCRASEDIYNRLTWYQQKPGKAPKLLLYGATSLETGVPSRFSGSGSGKDYTLTISSLQPEDFATYYCQQYWSNPYTFGGGTKVEIK as the entry. 140

Return Kd for the following binder: L2H2 (antibody, V domains shown, Humanized AT13/5 IgG, VL2 + VH2) VH: QVQLQESGPGLVKPSETLSLTCTVSGFSLTSYGVHWVRQPPGKGLEWIGVMWRGGSTDYNPSLKSRVTISKDNSKRQFSLKMSSVTAADTAVYYCAKSMITTGFVMDSWGQGTLVTVSS VL: DIQMTQSPSSLSASVGDRVTITCRASEDIYNRLAWYQQKPGKAPKLLLSGATSLETGVPSRFSGSGSGTDYTLTISSLQPEDFATYYCQQYWSNPYTFGGGTKVEIK 910

Supply Kd value. Item: L1H3 (antibody, V domains shown, Humanized AT13/5 IgG, VL1 + VH3) VH: QVQLQESGPGLVKPSETLSITCTVSGFSLTSYGVHWIRQPPGKGLEWIGVMWRGGSTDYNPSLKSRVTISKDTSKNQFSLKLSSLTAADTAVYYCAKSMITTGFVMDSWGQGTLVTVSS VL: DIQMTQSPSSLSASVGDRVTITCRASEDIYNRLTWYQQKPGKAPKLLLSGATSLETGVPSRFSGSGSGKDYTLTISSLQPEDFATYYCQQYWSNPYTFGGGTKVEIK 810

Dear colleague, please send me the reported Kd for L2H6 (antibody, V domains shown, Humanized AT13/5 IgG, VL2 + VH6) VH: QVQLQESGPGLVKPSETLSLTCTVSGFSLTSYGVHWIRQPPGKGLEWLGVMWRGGSTNYNPSLKSRVTISKDTSKNQFSLKLSSVTAADTAVYYCAKSMITTGFVMDSWGQGTLVTVSS VL: DIQMTQSPSSLSASVGDRVTITCRASEDIYNRLAWYQQKPGKAPKLLLSGATSLETGVPSRFSGSGSGTDYTLTISSLQPEDFATYYCQQYWSNPYTFGGGTKVEIK when you can. 1900
